- System: Plasmodium berghei
- protocol: Screen against P. berghei liver stage (PbLuc), transformed with Luciferase, at 10uM
- Assay type: functional, HepG2
- study_conditions: tested at 10 uM
The whole screen tested about 69,000 compounds, of which about 8,600 (12%) showed an effect of 50% or more. The full list was thinned out, with strong results kept by preference.
observation_type: INHIBITION (%)
Give the value in % but do not write % after it.

Consider the reported INHIBITION for these compounds:
| compound | INHIBITION (%) |
| --- | --- |
| Cn1cc(CN2C[C@H]3CCC[C@@H](CNc4ncccn4)[C@H]3C2)cn1 | 31.2 |
| O=S(=O)(CCN1CCc2c(ncn2C2CC2)C1)c1ccccc1 | -11.4 |
| CC(Nc1cccc(CN2CCOC2=O)c1)C(=O)NC(=O)NC(C)(C)C (configuration not stated) | 3.75 |

Request: Supply measured INHIBITION of O=C(CCC(F)(F)F)N1CCCC2(CCC(=O)N(CC3CC3)C2)C1 (configuration not stated) in your reply.
Result: 59.4

Request: Supply measured INHIBITION of CN1CCN(c2cc(CNCc3cccc4c3OCO4)ccn2)CC1 in your reply.
Result: 73.9

Request: Supply measured INHIBITION of Cn1cc(CN2CCCC23CCN(Cc2nccn2C)CC3)cn1 in your reply.
Result: 8.67

Request: Supply measured INHIBITION of CN(Cc1ccc([S+](C)[O-])cc1)c1cncc(Br)c1 (configuration not stated) in your reply.
Result: 58.4

Request: Supply measured INHIBITION of CN1CC(=O)N(c2cccc(F)c2)CC12CCN(Cc1ccncc1)C2 (configuration not stated) in your reply.
Result: -17.1

Request: Supply measured INHIBITION of c1ccc(NC[C@@H]2CCC[C@@H]3CN(Cc4nccs4)C[C@@H]32)nc1 in your reply.
Result: 51.2

Request: Supply measured INHIBITION of CCOC1CC2(CCN(Cc3nccn3C)CC2)C1 in your reply.
Result: -11.6

Request: Supply measured INHIBITION of NCC1Cc2cccc(-c3nccc(N4CCC(O)CC4)n3)c2O1 (configuration not stated) in your reply.
Result: 92.1

Request: Supply measured INHIBITION of Cc1oc2c(c1C(=O)N1CC[C@H](O)[C@]3(CCCO3)C1)CCCC2 in your reply.
Result: 3.75

Request: Supply measured INHIBITION of c1cnnc(-c2noc(CCN3CCCO3)n2)c1 in your reply.
Result: -8.51

Request: Supply measured INHIBITION of CN1CCN(C(=O)c2cc(C#N)cs2)c2ccccc2C1 in your reply.
Result: -91.4

Request: Supply measured INHIBITION of Cc1ncc(CNC(=O)N(C)Cc2ccc([S+](C)[O-])cc2)s1 (configuration not stated) in your reply.
Result: 40.5

Request: Supply measured INHIBITION of CC(=O)N1CC(=O)N(c2ccccc2)CC12CCN(Cc1ccoc1)C2 (configuration not stated) in your reply.
Result: 38.3

Request: Supply measured INHIBITION of Cc1csc(CNC(=O)N(C)Cc2ccc([S+](C)[O-])cc2)n1 (configuration not stated) in your reply.
Result: 20.6

Request: Supply measured INHIBITION of COC1CC2(CCN(Cc3nccn3C)CC2)C1 in your reply.
Result: -43.1

Request: Supply measured INHIBITION of CCC(C)NC(=O)c1ccn(COc2ccccc2Cl)n1 (configuration not stated) in your reply.
Result: 34.2

Request: Supply measured INHIBITION of CN(C)c1cc(CNCc2cccc3c2OCCO3)ccn1 in your reply.
Result: 52.1

Request: Supply measured INHIBITION of COc1cc(C(=O)NS(=O)(=O)c2cncc(Br)c2)cc(OC)c1C in your reply.
Result: -4.68

Request: Supply measured INHIBITION of Cn1ccnc1CN1CCC2(CC1)COCCN(c1ncccn1)C2 in your reply.
Result: 62.3

Request: Supply measured INHIBITION of c1cc(CNCc2ccnc(N3CCCC3)c2)c2c(c1)OCCO2 in your reply.
Result: 44.4
